The reported numbers originate from paper PMC10397247.

Consider the following binders; for each one, report its interaction score.
system_name: T1, 4H2713-AA
T1 chain: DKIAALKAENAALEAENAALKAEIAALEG
assay_details: two-hybrid library CCmax;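 note: natural log of median RNA to DNA barcode read ratio; higher means stronger binding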
condition_label: mean of both orientations

Solved cases (3 shown):
binder: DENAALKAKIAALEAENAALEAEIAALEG [4H1809-AA]
interaction score: -1.63
//
binder: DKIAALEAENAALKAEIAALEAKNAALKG [4H2248-AA]
interaction score: -1.2
//
binder: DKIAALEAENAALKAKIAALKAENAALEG [4H2283-AA]
interaction score: -1.19

Please go through the list and note interaction score for each binder.
1. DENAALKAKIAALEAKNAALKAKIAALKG [4H1854-AA]
2. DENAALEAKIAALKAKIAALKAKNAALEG [4H1391-AA]

1: -0.843; 2: -1.47
